MEASURED ON: TBK1 (human) (UniProt Q9UHD2)
Sequence (Q9UHD2 whole entry, looked up): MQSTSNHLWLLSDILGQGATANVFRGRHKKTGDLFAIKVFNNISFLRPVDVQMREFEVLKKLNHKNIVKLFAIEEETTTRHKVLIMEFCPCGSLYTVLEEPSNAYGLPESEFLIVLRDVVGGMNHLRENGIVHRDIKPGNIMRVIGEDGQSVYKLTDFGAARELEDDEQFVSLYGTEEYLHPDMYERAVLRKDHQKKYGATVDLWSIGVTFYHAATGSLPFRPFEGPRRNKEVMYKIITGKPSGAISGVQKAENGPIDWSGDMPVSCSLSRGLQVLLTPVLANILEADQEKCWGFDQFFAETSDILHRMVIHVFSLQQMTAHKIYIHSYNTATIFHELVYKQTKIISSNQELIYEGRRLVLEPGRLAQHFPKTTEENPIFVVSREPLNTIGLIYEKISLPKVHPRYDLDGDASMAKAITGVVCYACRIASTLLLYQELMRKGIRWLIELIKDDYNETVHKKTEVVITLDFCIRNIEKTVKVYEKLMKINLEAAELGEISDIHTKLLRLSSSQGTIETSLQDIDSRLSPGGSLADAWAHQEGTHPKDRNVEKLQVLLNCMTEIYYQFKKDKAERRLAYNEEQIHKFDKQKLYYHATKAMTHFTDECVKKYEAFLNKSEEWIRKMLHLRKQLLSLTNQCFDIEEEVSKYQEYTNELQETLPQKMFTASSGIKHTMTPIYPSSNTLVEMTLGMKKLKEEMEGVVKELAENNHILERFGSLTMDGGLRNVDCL
SETUP CONDITIONS: compound 1.0 µM
Could you please report measured per cent of control for the items listed next?
Respond with the bare value in %.

Look up and state reported per cent of control for `CCC(=O)N1CCN(c2ccc(-n3c(=O)ccc4cnc5ccc(-c6cnc7ccccc7c6)cc5c43)cc2C(F)(F)F)CC1`
96

Hello, please tell me recorded per cent of control for this one: `COc1ccc(-c2ccc3c(N4CCOCC4)nc(N4C[C@@H](C)O[C@@H](C)C4)nc3n2)cc1CO`
97

// fetch per cent of control given entry `COC(=O)Nc1ccc(-c2nc(N3CCOCC3)c3cnn(C4CCN(C(=O)OC)CC4)c3n2)cc1`
96

Give a short answer stating reported per cent of control for `CC(C)n1nc(-c2cc3cc(O)ccc3[nH]2)c2c(N)ncnc21` .
97

* * *

Consider the following molecules; for each one, report its kinase still bound, per cent of control.
MEASURED ON: CDC42BPG (human) (UniProt Q6DT37)
Sequence (Q6DT37 whole entry, looked up): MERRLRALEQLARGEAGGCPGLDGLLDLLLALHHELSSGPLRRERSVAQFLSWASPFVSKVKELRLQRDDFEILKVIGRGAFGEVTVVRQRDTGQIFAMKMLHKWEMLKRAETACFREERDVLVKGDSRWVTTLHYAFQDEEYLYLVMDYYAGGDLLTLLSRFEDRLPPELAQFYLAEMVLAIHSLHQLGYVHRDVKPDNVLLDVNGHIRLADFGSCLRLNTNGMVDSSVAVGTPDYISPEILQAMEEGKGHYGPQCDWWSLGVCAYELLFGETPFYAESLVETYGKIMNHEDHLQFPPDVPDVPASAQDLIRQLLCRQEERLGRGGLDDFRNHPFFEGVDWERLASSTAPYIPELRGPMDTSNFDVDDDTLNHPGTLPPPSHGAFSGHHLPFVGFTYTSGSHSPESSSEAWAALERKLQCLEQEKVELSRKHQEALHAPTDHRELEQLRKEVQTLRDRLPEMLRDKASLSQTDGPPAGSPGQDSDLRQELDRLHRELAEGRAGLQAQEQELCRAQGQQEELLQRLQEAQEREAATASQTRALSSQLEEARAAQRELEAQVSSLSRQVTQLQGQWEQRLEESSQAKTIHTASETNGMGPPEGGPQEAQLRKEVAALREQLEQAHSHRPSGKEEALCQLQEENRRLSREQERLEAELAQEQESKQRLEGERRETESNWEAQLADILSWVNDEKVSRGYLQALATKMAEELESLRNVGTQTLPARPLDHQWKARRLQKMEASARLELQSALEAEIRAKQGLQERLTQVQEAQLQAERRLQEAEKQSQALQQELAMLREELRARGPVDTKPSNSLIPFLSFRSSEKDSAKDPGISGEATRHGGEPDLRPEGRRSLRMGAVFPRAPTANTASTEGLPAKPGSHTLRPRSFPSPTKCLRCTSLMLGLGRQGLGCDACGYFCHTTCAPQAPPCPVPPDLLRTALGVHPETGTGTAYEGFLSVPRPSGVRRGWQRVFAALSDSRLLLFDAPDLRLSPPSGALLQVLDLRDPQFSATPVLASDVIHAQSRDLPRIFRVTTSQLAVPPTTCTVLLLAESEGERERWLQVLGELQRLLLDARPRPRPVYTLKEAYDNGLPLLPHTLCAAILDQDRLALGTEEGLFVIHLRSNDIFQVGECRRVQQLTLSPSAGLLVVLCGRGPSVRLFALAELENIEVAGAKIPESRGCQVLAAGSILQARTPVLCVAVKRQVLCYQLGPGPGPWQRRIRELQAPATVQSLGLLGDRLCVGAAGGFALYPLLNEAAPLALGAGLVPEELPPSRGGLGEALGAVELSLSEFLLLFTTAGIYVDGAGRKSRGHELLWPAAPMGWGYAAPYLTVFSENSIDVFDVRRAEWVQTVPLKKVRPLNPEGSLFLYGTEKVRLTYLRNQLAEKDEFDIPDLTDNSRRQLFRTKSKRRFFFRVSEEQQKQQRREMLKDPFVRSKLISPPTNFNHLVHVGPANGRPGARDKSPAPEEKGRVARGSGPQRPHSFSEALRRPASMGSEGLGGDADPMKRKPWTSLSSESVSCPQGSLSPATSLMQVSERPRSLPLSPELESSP
ASSAY EXPLANATION: KINOMEscan competition binding
SETUP CONDITIONS: compound 10.0 µM
Form entry: value (%) — number only.

// fetch kinase still bound, per cent of control given entry `COC(=O)Nc1ccc(-c2nc(N3CCOCC3)c3cnn(C4CCN(C(=O)OC)CC4)c3n2)cc1`
100

Give the reported kinase still bound, per cent of control for this molecule. `CC(C)n1nc(-c2cc3cc(O)ccc3[nH]2)c2c(N)ncnc21`
86

Please give the documented kinase still bound, per cent of control of `COc1ccc(-c2ccc3c(N4CCOCC4)nc(N4C[C@@H](C)O[C@@H](C)C4)nc3n2)cc1CO`
65

Determine its reported kinase still bound, per cent of control: `CCC(=O)N1CCN(c2ccc(-n3c(=O)ccc4cnc5ccc(-c6cnc7ccccc7c6)cc5c43)cc2C(F)(F)F)CC1`
1.6

* * *

MEASURED ON: GSK3B (human) (UniProt P49841)
Sequence (P49841 whole entry, looked up): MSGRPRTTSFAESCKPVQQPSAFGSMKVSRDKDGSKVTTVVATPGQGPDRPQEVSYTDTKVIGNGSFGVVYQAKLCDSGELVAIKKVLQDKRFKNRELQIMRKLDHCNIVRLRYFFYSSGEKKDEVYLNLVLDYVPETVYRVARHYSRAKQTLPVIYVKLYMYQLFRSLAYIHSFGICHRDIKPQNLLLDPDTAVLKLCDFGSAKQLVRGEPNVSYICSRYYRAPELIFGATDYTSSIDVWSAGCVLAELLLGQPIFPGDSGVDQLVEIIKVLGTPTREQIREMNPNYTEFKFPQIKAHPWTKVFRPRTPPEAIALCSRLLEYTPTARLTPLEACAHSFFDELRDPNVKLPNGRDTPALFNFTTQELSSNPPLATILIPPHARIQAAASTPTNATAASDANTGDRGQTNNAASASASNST
SETUP CONDITIONS: compound 10.0 µM
Kindly state per cent of control for each of the entries shown.
Give the number; % is assumed, so skip it.

Write down per cent of control measured for item `COc1ccc(-c2ccc3c(N4CCOCC4)nc(N4C[C@@H](C)O[C@@H](C)C4)nc3n2)cc1CO`
91

For the compound `CC(C)n1nc(-c2cc3cc(O)ccc3[nH]2)c2c(N)ncnc21` , give its measured per cent of control value.
60

For `COC(=O)Nc1ccc(-c2nc(N3CCOCC3)c3cnn(C4CCN(C(=O)OC)CC4)c3n2)cc1` , write its per cent of control.
93

Provide only the value of recorded per cent of control for `CCC(=O)N1CCN(c2ccc(-n3c(=O)ccc4cnc5ccc(-c6cnc7ccccc7c6)cc5c43)cc2C(F)(F)F)CC1`
49

* * *

Target or system PIK3C3 (human) (UniProt Q8NEB9): recorded IC50 listed per item.

Answer with IC50 of `COc1ccc(-c2ccc3c(N4CCOCC4)nc(N4C[C@@H](C)O[C@@H](C)C4)nc3n2)cc1CO` measured for PIK3C3 (human) (UniProt Q8NEB9).
> 10 µM

State IC50 on PIK3C3 (human) (UniProt Q8NEB9). Entry: `CC(C)n1nc(-c2cc3cc(O)ccc3[nH]2)c2c(N)ncnc21`
Sequence (Q8NEB9 whole entry, looked up): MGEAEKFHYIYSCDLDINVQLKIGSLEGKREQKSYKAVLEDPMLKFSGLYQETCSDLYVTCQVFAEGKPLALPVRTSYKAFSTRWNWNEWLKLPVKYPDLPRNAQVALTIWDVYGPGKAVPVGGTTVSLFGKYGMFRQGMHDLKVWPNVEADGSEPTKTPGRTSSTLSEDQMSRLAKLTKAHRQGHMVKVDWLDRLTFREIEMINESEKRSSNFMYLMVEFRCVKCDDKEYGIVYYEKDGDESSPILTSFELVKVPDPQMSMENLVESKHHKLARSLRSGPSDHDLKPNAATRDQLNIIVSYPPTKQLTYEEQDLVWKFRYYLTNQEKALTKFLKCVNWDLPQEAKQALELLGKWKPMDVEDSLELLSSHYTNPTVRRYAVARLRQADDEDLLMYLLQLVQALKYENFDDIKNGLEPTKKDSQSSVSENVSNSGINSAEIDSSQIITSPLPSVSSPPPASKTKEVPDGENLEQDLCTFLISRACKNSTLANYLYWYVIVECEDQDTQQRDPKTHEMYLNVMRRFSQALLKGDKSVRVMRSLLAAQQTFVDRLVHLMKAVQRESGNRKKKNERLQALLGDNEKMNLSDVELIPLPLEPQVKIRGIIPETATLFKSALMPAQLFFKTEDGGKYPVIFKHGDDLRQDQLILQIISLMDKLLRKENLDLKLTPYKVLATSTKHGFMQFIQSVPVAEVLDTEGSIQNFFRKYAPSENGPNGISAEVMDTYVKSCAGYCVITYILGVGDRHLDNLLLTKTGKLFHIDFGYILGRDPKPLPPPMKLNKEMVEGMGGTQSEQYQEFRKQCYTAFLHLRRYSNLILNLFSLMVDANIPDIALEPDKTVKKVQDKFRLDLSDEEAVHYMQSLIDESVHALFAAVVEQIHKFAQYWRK
> 10 µM

State the measured IC50 (PIK3C3 (human) (UniProt Q8NEB9)) of `COC(=O)Nc1ccc(-c2nc(N3CCOCC3)c3cnn(C4CCN(C(=O)OC)CC4)c3n2)cc1`
> 10 µM
